Data provenance is patent US8846951B2.

Molecular target: 5HT2C receptors (Homo sapiens, UniProt P28335)
Sequence (P28335 33-458): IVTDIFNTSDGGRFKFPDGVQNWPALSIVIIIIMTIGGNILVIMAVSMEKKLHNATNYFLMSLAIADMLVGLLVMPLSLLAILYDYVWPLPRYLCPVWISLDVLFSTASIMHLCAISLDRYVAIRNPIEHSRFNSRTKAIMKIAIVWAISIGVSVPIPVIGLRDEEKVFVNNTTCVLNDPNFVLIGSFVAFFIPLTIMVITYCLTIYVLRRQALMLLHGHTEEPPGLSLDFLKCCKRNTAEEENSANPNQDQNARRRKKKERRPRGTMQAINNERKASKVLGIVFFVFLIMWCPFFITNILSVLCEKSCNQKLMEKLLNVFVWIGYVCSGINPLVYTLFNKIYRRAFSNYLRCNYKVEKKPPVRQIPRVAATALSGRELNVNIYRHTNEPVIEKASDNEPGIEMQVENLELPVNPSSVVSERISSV
Assay: Human 5-HT2C functional high throughput screening assay in CHO-K1 cells (calcium flux)
Assay type: cell-based
Set-up: expressed in transfected cells; host or cells: CHO-K1 cells
Conditions: EC50, 5-HT2C agonist activity; CHO-K1 cells; calcium flux
readout.kind: EC50

* O=C1NC[C@H]2CN(Cc3ccccc3)C[C@@H]2c2ccc(F)cc21 [Example 61] | 5.82 nM
* Fc1ccc2c(c1)OCC[C@H]1CN(Cc3ccccc3)C[C@H]21 (relative stereo) [Example 107] | 90 nM
* CCC(C)Oc1ccc2c(c1)C(=O)NC[C@@H]1CN(C)C[C@@H]21 (relative stereo) [Example 170] | 70 nM
* CN1CC[C@@H]2CNC[C@H]2c2cccc(Cl)c21 (relative stereo) [Example 375] | 0.3 nM

====

Recorded measurements of Ki, one per entry
target: 5-HT6 receptor (Homo sapiens, UniProt P50406)
Sequence (P50406 whole entry): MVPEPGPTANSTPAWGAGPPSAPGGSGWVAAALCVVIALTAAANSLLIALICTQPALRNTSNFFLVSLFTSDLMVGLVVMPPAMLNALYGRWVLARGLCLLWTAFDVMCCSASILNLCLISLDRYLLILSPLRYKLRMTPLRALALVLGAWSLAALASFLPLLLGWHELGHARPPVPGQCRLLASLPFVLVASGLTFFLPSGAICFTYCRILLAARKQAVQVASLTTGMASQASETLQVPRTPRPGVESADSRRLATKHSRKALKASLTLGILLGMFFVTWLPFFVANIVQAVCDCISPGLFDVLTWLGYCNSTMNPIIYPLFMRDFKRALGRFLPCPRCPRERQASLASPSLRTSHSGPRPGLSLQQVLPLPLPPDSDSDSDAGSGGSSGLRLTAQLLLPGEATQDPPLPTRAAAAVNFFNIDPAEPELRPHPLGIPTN
readout.kind: Ki (nM)

• O=S(=O)(c1ccc(F)c(Cl)c1)N1Cc2ccccc2[C@@H]2CN(Cc3ccccc3)C[C@H]2C1 (relative stereo) = 250
• O=S(=O)(c1cccc(F)c1)N1Cc2ccccc2[C@@H]2CN(Cc3ccccc3)C[C@H]2C1 (relative stereo) = 28

====

molecular target: 5HT2C receptors (Homo sapiens); assay: Human 5-HT2C functional high throughput screening assay in CHO-K1 cells (calcium flux); assay type: cell-based; parameters: expressed in transfected cells; host or cells: CHO-K1 cells; conditions: EC50, 5-HT2C agonist activity; CHO-K1 cells; calcium flux
Recorded measurements of log10 of EC50, one per entry
readout.kind: log10 of EC50 (log10 of the value in nM)

* CN1C[C@H]2CNC(=O)c3cccc(F)c3[C@@H]2C1 (relative stereo) [Example 89] | 1.06
* Cc1cc2c(cc1F)C(=O)NC[C@@H]1CNC[C@H]21 (relative stereo) [Example 279] | 1.78
* CN1C[C@H]2CNC(=O)c3cc(F)ccc3[C@@H]2C1 (relative stereo) [Example 91] | 1.30
* C[C@@H](Oc1ccc2c(c1)C(=O)NC[C@@H]1CNC[C@@H]21)c1ccccc1 (mixture of isomers) [Example 150] | 1.70
* O=C1NC[C@H]2CNC[C@@H]2c2ccc(OCc3ccccc3F)cc21 [Example 179] | -0.52
* Fc1ccc2c(c1)[C@H]1CNC[C@@H]1CCO2 (relative stereo) [Example 286] | 2.48
* O=C1NC[C@@H]2CNC[C@H]2c2ccc(OCCc3ccccc3)cc21 (relative stereo) [Example 123] | 1.00
* Fc1ccc(F)c2c1OCC[C@H]1CNC[C@@H]21 (relative stereo) [Example 288] | 1.60
* Cc1ccc(S(=O)(=O)N2Cc3cccnc3[C@@H]3CNC[C@H]3C2)cc1 (relative stereo) [Example 356] | 1.60
* COc1ccc(-c2ccc3c(c2)C(=O)NC[C@H]2CN(C)C[C@H]32)cn1 [Example 318] | 1.00
* CN1C[C@H]2CNC(=O)c3cc(C4=CCCC4)ccc3[C@@H]2C1 (relative stereo) [Example 201] | 2.00
* Clc1cc(Br)c2c(c1)[C@@H]1CNC[C@@H]1CCO2 (relative stereo) [Example 393] | 2.30
* c1ccc2c(c1)OCC[C@H]1CNC[C@H]21 [Example 270] | 1.00
* O=C1NC[C@@H]2CNC[C@H]2c2ccc(-c3ccncc3)cc21 (relative stereo) [Example 177] | 2.00
* CN1C[C@H]2CCN(C)c3ccccc3[C@@H]2C1 (relative stereo) [Example 330] | 1.85
* Clc1cccc2c1OCC[C@H]1CNC[C@@H]21 (relative stereo) [Example 295] | 1.00
* CC(C)COc1ccc2c(c1)C(=O)NC[C@H]1CNC[C@H]21 [Example 308] | 0.48
* COc1cc(OC)c2c(c1)C(=O)NC[C@@H]1CNC[C@@H]21 (relative stereo) [Example 100] | 0.48
* O=C1NC[C@@H]2CNC[C@H]2c2ccc(OCC3CCCCC3)cc21 (relative stereo) [Example 167] | 0.70
* COc1ccc2c(c1)C(=O)N(C)C[C@@H]1CNC[C@@H]21 (relative stereo) [Example 188] | 1.78
* O=C1NC[C@@H]2CNC[C@H]2c2cccc(OC(F)(F)F)c21 (relative stereo) [Example 103] | -0.15
* COc1cccc2c1[C@H]1CNC[C@@H]1CCO2 (relative stereo) [Example 272] | 0.85
* O=C1NC[C@H]2CN(Cc3ccccc3)C[C@@H]2c2c(F)cc(F)cc21 [Example 105] | 1.30
* c1ccc2c(c1)OCC[C@@H]1CNC[C@@H]21 [Example 271] | 2.60
* CN1C[C@@H]2CN(C)C(=O)c3cc(F)ccc3[C@H]2C1 [Example 163] | 1.78
* CN1C[C@@H]2CCOc3ccccc3[C@H]2C1 [Example 235] | 1.60
* COc1ccc2c(c1)OCC[C@H]1CNC[C@H]21 (relative stereo) [Example 280] | 1.95
* O=C1NC[C@@H]2CN(Cc3ccccc3)C[C@H]2c2ncccc21 (relative stereo) [Example 151] | 1.85
* Brc1cccc2c1OCC[C@H]1CNC[C@H]21 (relative stereo) [Example 383] | -1.40
* O=C1NC[C@H]2CNC[C@@H]2c2ccccc21 [Example 44] | 0.00
* Cc1ccccc1S(=O)(=O)N1Cc2cccnc2[C@@H]2CNC[C@H]2C1 (relative stereo) [Example 341] | 1.95
* O=S(=O)(c1ccc(F)cc1)N1Cc2cccnc2[C@@H]2CNC[C@H]2C1 (relative stereo) [Example 357] | 2.00

====

Target: 5HT2C receptors (Homo sapiens, UniProt P28335)
Sequence (P28335 33-458): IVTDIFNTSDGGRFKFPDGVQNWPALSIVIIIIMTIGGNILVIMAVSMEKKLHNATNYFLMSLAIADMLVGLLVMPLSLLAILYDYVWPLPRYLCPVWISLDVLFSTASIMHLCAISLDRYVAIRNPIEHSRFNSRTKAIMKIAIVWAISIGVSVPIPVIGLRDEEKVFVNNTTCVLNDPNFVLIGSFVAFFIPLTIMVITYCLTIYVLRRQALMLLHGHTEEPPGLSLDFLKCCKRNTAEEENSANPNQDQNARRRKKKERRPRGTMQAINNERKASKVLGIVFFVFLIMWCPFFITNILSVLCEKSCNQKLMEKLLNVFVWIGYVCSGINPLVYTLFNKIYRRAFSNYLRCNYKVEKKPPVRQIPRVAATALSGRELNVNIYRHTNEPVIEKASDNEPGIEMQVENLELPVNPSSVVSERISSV
Experiment: Human 5-HT2C functional high throughput screening assay in CHO-K1 cells (calcium flux)
Type: cell-based
Design: expressed in transfected cells; host or cells: CHO-K1 cells
Conditions: 5-HT2C agonist activity; CHO-K1 cells; calcium flux; read-out: EC50
pEC50: −log10 of the molar value.
# cutoff 7 applies to pEC50; >= gives 1, < gives -1

* C[C@H](O)c1cc(-c2ccc3c(c2)C(=O)NC[C@H]2CN(C)C[C@H]32)ccc1F (single isomer, unassigned) [Example 352] | 1
* O=C1NC[C@H]2CNC[C@@H]2c2ccc(-c3ccc(F)cc3)cc21 [Example 220] | 1
* COc1ccc(OC)c(S(=O)(=O)N2Cc3cccnc3[C@@H]3CNC[C@H]3C2)c1 (relative stereo) [Example 343] | -1
* CN1C[C@H]2CNC(=O)c3cc(-c4ccsc4Cl)ccc3[C@@H]2C1 (relative stereo) [Example 387] | 1
* O=C1NC[C@@H]2CNC[C@H]2c2cc3ccccc3cc21 (relative stereo) [Example 257] | 1
* COc1ccc(-c2ccc3c(c2)C(=O)NC[C@H]2CN(C)C[C@H]32)cc1Cl [Example 319] | 1
* CN1C[C@H]2CNC(=O)c3cc(-c4cccnc4)ccc3[C@@H]2C1 (relative stereo) [Example 143] | -1
* CN1C[C@H]2CNC(=O)c3cc(C4CCOCC4)ccc3[C@@H]2C1 (relative stereo) [Example 267] | -1
* O=S(=O)(c1cccs1)N1Cc2cccnc2[C@@H]2CNC[C@H]2C1 (relative stereo) [Example 358] | -1
* CN1C[C@@H]2CNC(=O)c3cc(-c4ccc(F)cc4)ccc3[C@H]2C1 [Example 115] | 1
* c1cc(-c2ccncc2)c2c(c1)[C@H]1CNC[C@@H]1CCO2 (relative stereo) [Example 369] | -1
* CN1C[C@H]2CNC(=O)c3cc(C4CCCC4)ccc3[C@@H]2C1 (relative stereo) [Example 205] | -1
* COc1ccc2c(c1)C(=O)NC[C@@H]1CNC[C@H]21 (relative stereo) [Example 135] | -1
* O=C1CCc2ccc(-c3ccc4c(c3)C(=O)NC[C@@H]3CNC[C@@H]43)cc21 (relative stereo) [Example 247] | 1
